- Assayed Target: T1, His-tagged cynomolgus monkey CD38 (ACRO Biosystems cat #CD8-05223) (cynomolgus monkey, UniProt Q5VAN0 43-301)
- T1 construct: bought recombinant protein with His tag
- Test Name: ELISA, coated His-CD38
I'd be grateful if you could share measured ELISA 1 ug/ml for these entries.

Request: Could you tell me which ELISA 1 ug/ml is on file for 40769p1.1.B8 (scFv, V domains shown, tested as scFv-Fc supernatant) VH: EVQLLESGGGLVQPGGSLRLSCAASGFTFEDYAMSWVRQAPGKGLEWVSVISSKGGSTSNADSVKGRFTISRDNSKNTLYLQMNSLRAEDTAVYYCAKGMERQYYSYNAMDVWGQGTTVTVSS VL: QSVLTQPPSASGTPGQRVTISCSGSNSNIDVDYVYWYQQLPGTAPRLLIYKDDQRPSGVPDRFSGSKSGTSASLAISGLQSEDEADYYCATWDDNLNSWLFGGGTKLTVL ?
Response: 1.75

Request: Could you tell me which ELISA 1 ug/ml is on file for 40596p1.H7 (scFv, V domains shown, tested as scFv-Fc supernatant) VH: EVQLLESGGGLVQPGGSLRLSCAASGFDFSTYAMTWVRQAPGKGLEWVAGNGWSGSFTYYADSVKGRFTVSRDNSKNTLYLQMNSLRAEDTAVYYCTRNPGFGEMDVWGQGTTVTVSS VL: EIVLTQSPGTLRLSPGERATLSCRASQTVGTTLAWYQQKPGQAPRLLIHGASTRATDIPDRFSGSGSGTEFTLTISSLQSEDFADYYCQQYKSWPPLTFGGGTKVEIK ?
Response: 1.89

Request: Could you tell me which ELISA 1 ug/ml is on file for 40566p1.D2 (scFv, V domains shown, tested as scFv-Fc supernatant) VH: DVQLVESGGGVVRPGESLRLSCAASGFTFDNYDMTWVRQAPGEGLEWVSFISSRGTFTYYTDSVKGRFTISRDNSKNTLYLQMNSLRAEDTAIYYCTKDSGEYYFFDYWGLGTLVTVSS VL: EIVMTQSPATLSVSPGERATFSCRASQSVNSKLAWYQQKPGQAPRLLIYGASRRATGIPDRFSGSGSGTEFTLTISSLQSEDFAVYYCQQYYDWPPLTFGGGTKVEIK ?
Response: 1.83

Request: Could you tell me which ELISA 1 ug/ml is on file for 40769p1.2.E3 (scFv, V domains shown, tested as scFv-Fc supernatant) VH: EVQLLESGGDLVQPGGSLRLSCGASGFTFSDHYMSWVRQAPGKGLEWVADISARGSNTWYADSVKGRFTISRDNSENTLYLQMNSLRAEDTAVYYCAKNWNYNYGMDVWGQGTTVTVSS VL: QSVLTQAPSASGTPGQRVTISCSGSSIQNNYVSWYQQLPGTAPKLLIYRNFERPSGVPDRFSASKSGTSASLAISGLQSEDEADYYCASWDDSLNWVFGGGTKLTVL ?
Response: 1.7

Request: Could you tell me which ELISA 1 ug/ml is on file for 40769p1.1.B10 (scFv, V domains shown, tested as scFv-Fc supernatant) VH: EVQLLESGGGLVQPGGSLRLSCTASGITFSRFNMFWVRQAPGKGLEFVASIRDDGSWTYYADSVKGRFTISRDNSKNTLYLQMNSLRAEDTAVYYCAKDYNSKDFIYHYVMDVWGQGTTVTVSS VL: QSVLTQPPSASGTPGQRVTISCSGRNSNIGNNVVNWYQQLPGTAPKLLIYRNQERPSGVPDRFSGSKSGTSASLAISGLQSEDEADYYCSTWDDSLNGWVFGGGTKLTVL ?
Response: 2.05

Request: Could you tell me which ELISA 1 ug/ml is on file for 40769p1.1.E2 (scFv, V domains shown, tested as scFv-Fc supernatant) VH: EVLLLESGGGLVQPGGSLRLSCAASGFTFSDYWMSWVRQAPGKGLEWVSTISISAGIIYYADSVKGRFTISRDNSKNTLYLQMNSLRAEDTAVYYCAKDNWNDYYGMDVWGQGTTVTVSS VL: QSVLTQPPSASGTPGQRVTMSCSGNNQNIRDNYVYWYQQVPGTAPKLLIYKDDQRPSGVPDRFSGSKSGTSASLAISGLQSEDEADYYCATWDGSLKARVFGGGTKLTVL ?
Response: 1.98

Request: Could you tell me which ELISA 1 ug/ml is on file for 40769p1.1.G10 (scFv, V domains shown, tested as scFv-Fc supernatant) VH: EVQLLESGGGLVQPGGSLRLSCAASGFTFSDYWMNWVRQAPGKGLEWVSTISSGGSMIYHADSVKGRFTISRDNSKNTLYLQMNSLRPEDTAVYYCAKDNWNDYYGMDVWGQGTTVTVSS VL: QSVLTQPPSASGTPGQRVNISCSGSSSNIRYNYVYWYQQVPGTAPKLLIYKDDQRPSGVPDRFSGSESGTSASLAISGLQSEDEADYYCATWDGSLNARVFGGGTKLTVL ?
Response: 2.11

Request: Could you tell me which ELISA 1 ug/ml is on file for 40596p1.D2 (scFv, V domains shown, tested as scFv-Fc supernatant) VH: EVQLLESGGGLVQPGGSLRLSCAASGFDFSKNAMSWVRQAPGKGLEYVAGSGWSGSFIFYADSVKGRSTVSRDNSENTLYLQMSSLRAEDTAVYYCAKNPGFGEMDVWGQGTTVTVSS VL: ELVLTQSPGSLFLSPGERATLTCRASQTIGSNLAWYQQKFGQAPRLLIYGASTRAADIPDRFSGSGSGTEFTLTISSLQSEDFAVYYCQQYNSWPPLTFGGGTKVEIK ?
Response: 1.85

Request: Could you tell me which ELISA 1 ug/ml is on file for 40566p1.A8 (scFv, V domains shown, tested as scFv-Fc supernatant) VH: DVQLVESGGGVVRPGESLRLSCAASGFTFDNYDMTWVRQAPGEGLEWVSFISSRGTFTYYTDSVKGRFTISRDNSKNTLYLQMNSLRAEDTAIYYCAKDSGEYYFFDYWGLGTLVTVSS VL: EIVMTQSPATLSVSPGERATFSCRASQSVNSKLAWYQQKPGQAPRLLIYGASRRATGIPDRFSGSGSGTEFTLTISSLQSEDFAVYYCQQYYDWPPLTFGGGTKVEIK ?
Response: 1.9

Request: Could you tell me which ELISA 1 ug/ml is on file for 40617p1.2.A1 (scFv, V domains shown, tested as scFv-Fc supernatant) VH: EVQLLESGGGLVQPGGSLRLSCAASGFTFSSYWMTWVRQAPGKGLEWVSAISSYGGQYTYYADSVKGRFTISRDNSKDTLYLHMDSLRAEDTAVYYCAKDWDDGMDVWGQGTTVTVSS VL: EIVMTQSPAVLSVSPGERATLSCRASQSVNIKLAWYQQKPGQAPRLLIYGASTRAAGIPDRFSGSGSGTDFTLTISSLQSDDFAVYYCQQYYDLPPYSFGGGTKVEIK ?
Response: 1.67
